All figures here come from patent US20240076389A1.

# target under test: T1, mouse AXL extracellular domain (Sino cat. 51026-M08H) (mouse, UniProt Q00993 19-445)
# T1 construct: extracellular domain; Bought protein; also called mouse AXL ECD
# T1 sequence (looked up): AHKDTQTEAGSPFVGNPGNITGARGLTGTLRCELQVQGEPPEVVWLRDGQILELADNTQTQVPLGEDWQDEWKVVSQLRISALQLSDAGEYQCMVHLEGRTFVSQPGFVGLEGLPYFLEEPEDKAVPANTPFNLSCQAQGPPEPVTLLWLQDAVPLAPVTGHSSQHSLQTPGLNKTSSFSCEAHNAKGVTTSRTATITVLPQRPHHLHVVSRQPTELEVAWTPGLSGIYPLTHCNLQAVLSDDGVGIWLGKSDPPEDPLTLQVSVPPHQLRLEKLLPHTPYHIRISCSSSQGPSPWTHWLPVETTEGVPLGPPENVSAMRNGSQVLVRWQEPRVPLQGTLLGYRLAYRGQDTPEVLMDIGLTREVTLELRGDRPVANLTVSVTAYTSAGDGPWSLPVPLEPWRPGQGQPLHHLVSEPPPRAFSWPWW
# assay name: ELISA on coated mouse AXL ECD (100 ng/well)
parameter measured: binding result

# binder, parameter measured, value observed
data = [
    ("mIgG2 F149-4G4 (antibody, V domains shown, Printed as mIgG2 (mouse IgG2)) VH: QIQLVQSGPELKKPGETVKISCKTSGYTFTYYGINWVKQAPGKGLEWMGWINTYLGEPTYADDFKGRFAFSLETSASTAYLQINNLRDEDMATYFCTRGTMSYSFDYWGQGTALTVSS VL: QNVLTQSPAIMSASPGEEVTMTCRASSSVSSSYLHWYQQKSGASPKLWIYSTSKLASGVPARFSGSGSGTSYSLTISSVEAEDAATYYCHQYSGDPLTFGSGTKLEVK", "binding result", "no binding"),
    ("hFC-F107-10G1 (antibody, human IgG1, kappa, V domains shown, Chimeric mAb, human IgG1 / human kappa constant regions; also called mAb F107-10G1) VH: EVNLVESGGGVVKPGASLKLSCEASGFTFSNYGMSWVRQTSDKRLEWVASISGGGGRTYYLDNVKGRFIISRENAKNTLYLQMSSLKSEDTALFYCARGARASYFAMDYWGQGSSVTVSS VL: VIVMTQSHKFMSTSVGDRVSITCKASQDVTTAVAWYQQKPGQSPKLLIYWASTRHTGVPDRFTGSGSGTDYSLTISNVQTEDLAFYYCQQHFTTPLTFGAGTKLELKR", "binding result", "no binding"),
    ("hFC-F107-7H5 (antibody, human IgG1, kappa, V domains shown, Chimeric mAb, mouse VH/VL on human IgG1 heavy and human kappa light constant regions, made in CHO cells; also called mAb F107-7H5; hIgG-F107-7H5) VH: QVQLQQPGAELVKPGASVKLSCKASGYTFTSYWINWVKQRPGQGLEWIGNIYPDSSSTNYNEKFKSKATLTVDKSSTTAYIQFSSLTSEDSAVYYCTRDTYGGSPDYWGQGTTLTVSS VL: DIVMSQSPSSLAVSAGEKVTMSCKSSQSLLNSRTRKIYLAWYQQKPGQSPKLLIYWASTRQSGVPDRFTGSGSGTDFTLTISSVQAEDLAVYYCKQSYNLWTFGGGTKLEIKR", "binding result", "no binding"),
]
